Measured values drawn from PubChem BioAssay (NCATS) for this set.

System: CP185
Experiment: qHTS profiling for inhibitors of Plasmodium falciparum proliferation (AID 504749); note: nearly all actives have a fitted effect of over 60% in size
Conditions: P. falciparum in erythrocytes, SYBR Green DNA, 72 h; series mostly up to 12.8 µM
Inconclusive results are not listed. Calls of active or inactive are those of the source. Calls come from the whole dose curve; as a rule, active = well fitted inhibition curve with a large enough effect; inconclusive = small, poorly fitted or top-dose-only effect; inactive = flat fitted curve, though single readings scatter.
Outcome codes: true (1) (active), false (0) (inactive)

• CC(C)=CCC[C@](C)(O)C1CC=C(C)CC1 (some centres undefined) = false (0)
• O=C1O[C@@H]([C@@H](O)CO)[C@@H](O)[C@H]1O = false (0)
• CC[C@H]1NC(=O)c2cc(S(N)(=O)=O)c(Cl)cc2N1 = false (0)
• CN1CCC[C@@H](CC2c3ccccc3Sc3ccccc32)C1 = false (0)
• OCC1OC(n2cnc3c(=S)nc[nH]c32)C(O)C1O (centres undefined) = false (0)
• C=CC1=C(C(=O)O)N2C(=O)[C@@H](NC(=O)/C(=N\OCC(=O)O)c3csc(N)n3)[C@@H]2SC1 = false (0)
• CCN[C@@H]1CN(CCCOC)S(=O)(=O)c2sc(S(N)(=O)=O)cc21 = false (0)
• CC[N+](CC)(CC)CC[C@](O)(c1ccccc1)C1CCCCC1 = false (0)
• CC1=C(C(=O)O)N2C(=O)[C@@H](NC(=O)[C@@H](N)c3ccc(O)cc3)[C@@H]2SC1 = false (0)
• C=CCOc1ccccc1OC[C@H](O)CNC(C)C = false (0)
• NC[C@@H]1O[C@H](O[C@@H]2[C@H](O[C@@H]3O[C@H](CO)[C@@H](O)[C@@H]3O)[C@@H](O)[C@@H](N)C[C@H]2N)[C@@H](N)[C@H](O)[C@@H]1O = false (0)
• Cc1onc(-c2ccccc2Cl)c1C(=O)N[C@H]1C(=O)N2[C@H]1SC(C)(C)[C@H]2C(=O)O = false (0)
• C[C@@]12CC[C@H]3[C@@H](CCC4=CC(=O)CC[C@]43C)[C@H]1CC[C@H]2C(=O)CO = false (0)
• CCOC(=O)O[C@@H](C)OC(=O)[C@@H]1N2C(=O)[C@@H](NC(=O)[C@@H](N)c3ccccc3)[C@H]2SC1(C)C = false (0)
• O=C(N/N=C\c1ccc([N+](=O)[O-])o1)c1ccc(O)cc1 = true (1)
• C[C@H](O)Cn1cnc2c1c(=O)n(C)c(=O)n2C = false (0)
• NS(=O)(=O)c1cc2c(cc1C(F)(F)F)N[C@H](Cc1ccccc1)NS2(=O)=O = false (0)
• CN(C)CCCOC1C(C(O)CO)OC2OC(C)(C)O[C@@H]21 (some centres undefined) = false (0)
• COc1ccc([C@@H]2CC(=O)c3c(O)cc(O[C@H]4O[C@@H](CO[C@H]5O[C@@H](C)[C@@H](O)[C@@H](O)[C@@H]5O)[C@@H](O)[C@@H](O)[C@@H]4O)cc3O2)cc1O = false (0)
